Taken from ChEMBL document CHEMBL1130156.

Here we list compounds with their recorded pKi when tested on Mu-type opioid receptor (Rattus norvegicus, UniProt P33535).
Where a SMILES comes first, the peptide text is derived from it. [ ]: non-standard residue; d: D form. Tic = O=C(O)[C@@H]1Cc2ccccc2CN1
In simple prose, pKi is minus the logarithm base ten of a concentration in moles per litre.

Request: # value lookup — system Mu-type opioid receptor (Rattus norvegicus, UniProt P33535), readout pKi, item Cc1cc(O)cc(C)c1CC(C)C(=O)N1Cc2ccccc2CC1C(=O)O (centres undefined)
Result: 4.15

Request: One more compound: CN[C@H](Cc1c(C)cc(O)cc1C)C(=O)N1Cc2ccccc2C[C@H]1C(=O)N[C@@H](C)C(=O)O
Result: 4.72

Request: One more compound: CN(C)[C@@H](Cc1ccc(O)cc1)C(=O)N1Cc2ccccc2CC1C(=O)O (some centres undefined)
Result: 4.94

Request: One more compound: CN[C@@H](Cc1c(C)cc(O)cc1C)C(=O)N1Cc2ccccc2CC1C(=O)O (some centres undefined)
Result: 6.42

Request: One more compound: CN[C@H](Cc1c(C)cc(O)cc1C)C(=O)N1Cc2ccccc2CC1C(N)=O (some centres undefined)
Result: 5.88

Request: One more compound: N[C@@H](Cc1ccc(O)cc1)C(=O)N1Cc2ccccc2C[C@H]1C(=O)O (H-Tyr-[Tic]-OH)
Result: 4.55

Request: One more compound: CN[C@@H](Cc1c(C)cc(O)cc1C)C(=O)N1Cc2ccccc2C[C@H]1C(=O)N[C@@H](C)C(=O)O
Result: 5.23

Request: One more compound: CN[C@@H](Cc1c(C)cc(O)cc1C)C(=O)N1Cc2ccccc2CC1C(N)=O (some centres undefined)
Result: 6.02

Request: One more compound: Cc1cc(O)cc(C)c1C[C@@H](C(=O)N1Cc2ccccc2C[C@H]1C(=O)N[C@@H](C)C(=O)O)N(C)C
Result: 5.82

---

- testedOn: Mu-type opioid receptor (Cavia porcellus) (UniProt P97266)
- Sequence (P97266 whole entry): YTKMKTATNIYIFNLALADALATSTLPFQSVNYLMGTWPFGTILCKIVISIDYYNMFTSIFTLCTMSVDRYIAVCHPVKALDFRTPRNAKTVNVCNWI
- testProtocol: Antagonist activity against Opioid receptor mu 1 in guinea pig ileum assay; '-' indicates inactive
- Type: functional, tissue-based
Active and inactive are the calls of the source. The rule behind the calls is not given here.
measuredAttribute: pA2

compound: Cc1cc(O)cc(C)c1C[C@H](N)C(=O)N1Cc2ccccc2C[C@H]1C(=O)O
pA2: inactive

compound: Cc1cc(O)cc(C)c1C[C@@H](N)C(=O)N1Cc2ccccc2C[C@H]1C(=O)N[C@@H](C)C(=O)O
pA2: inactive

compound: Cc1cc(O)cc(C)c1C[C@H](C(=O)N1Cc2ccccc2CC1C(=O)O)N(C)C (some centres undefined)
pA2: inactive

compound: Cc1cc(O)cc(C)c1C[C@H](N)C(=O)N1Cc2ccccc2C[C@H]1C(=O)NC(C)C(=O)O (some centres undefined)
pA2: inactive

compound: CN[C@H](Cc1c(C)cc(O)cc1C)C(=O)N1Cc2ccccc2CC1C(=O)O (some centres undefined)
pA2: inactive

Request: Give the measured pA2 of CN[C@@H](Cc1c(C)cc(O)cc1C)C(=O)N1Cc2ccccc2CC1C(=O)O (some centres undefined) .
Result: inactive

Request: One more compound: CN[C@@H](Cc1c(C)cc(O)cc1C)C(=O)N1Cc2ccccc2C[C@H]1C(=O)N[C@@H](C)C(=O)O
Result: inactive

Request: One more compound: CN[C@H](Cc1c(C)cc(O)cc1C)C(=O)N1Cc2ccccc2CC1C(N)=O (some centres undefined)
Result: inactive

Request: One more compound: Cc1cc(O)cc(C)c1CC(N)C(=O)N1Cc2ccccc2C[C@H]1C(=O)O (single isomer, unassigned)
Result: inactive

---

- testedOn: Delta-type opioid receptor (Rattus norvegicus)
- testProtocol: Agonist activity for Opioid receptor delta 1
measuredAttribute: pIC50
In simple prose, pIC50 is minus the logarithm base ten of a concentration in moles per litre.

Request: Give the measured pIC50 of CC(C)[C@H](NC(=O)[C@H](CC(=O)O)NC(=O)[C@H](Cc1ccccc1)NC(=O)[C@@H](C)NC(=O)[C@@H](N)Cc1ccc(O)cc1)C(=O)N[C@H](C(=O)NCC(N)=O)C(C)C .
Result: 9.27

---

- testedOn: Delta-type opioid receptor (Mus musculus)
- Sequence (P32300 whole entry): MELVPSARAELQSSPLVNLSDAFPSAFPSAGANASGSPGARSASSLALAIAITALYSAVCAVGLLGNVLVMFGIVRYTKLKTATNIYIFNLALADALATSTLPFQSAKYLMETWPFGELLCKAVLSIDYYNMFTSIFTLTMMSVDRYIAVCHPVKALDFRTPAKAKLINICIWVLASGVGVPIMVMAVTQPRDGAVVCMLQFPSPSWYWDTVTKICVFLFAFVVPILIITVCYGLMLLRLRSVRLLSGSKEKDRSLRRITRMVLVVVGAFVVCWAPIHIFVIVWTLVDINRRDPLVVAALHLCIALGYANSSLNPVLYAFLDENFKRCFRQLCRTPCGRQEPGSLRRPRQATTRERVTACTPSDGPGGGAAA
- testProtocol: Antagonist activity against Opioid receptor delta 1 in mouse vas deferens assay
measuredAttribute: Kb (nM)
Report only the number, with the unit nM understood.

Solved cases below.
molecule: Cc1cc(O)cc(C)c1C[C@H](C(=O)N1Cc2ccccc2CC1C(=O)O)N(C)C (stereo partly drawn)
Kb, nM: 2.51

molecule: Cc1cc(O)cc(C)c1C[C@@H](C(=O)N1Cc2ccccc2C[C@H]1C(=O)N[C@@H](C)C(=O)O)N(C)C
Kb, nM: 0.251

Would you kindly look at the next entry?
Request: Give the measured Kb of CN[C@@H](Cc1c(C)cc(O)cc1C)C(=O)N1Cc2ccccc2CC1C(N)=O (stereo partly drawn) .
Result: 2.51

---

Here we list molecules with their recorded Ki when tested on Mu-type opioid receptor (Rattus norvegicus, UniProt P33535).
Where a SMILES comes first, the peptide text is derived from it. [ ]: non-standard residue; d: D form. NMeY = CN[CH](Cc1ccc(O)cc1)C(=O)O; Tic = O=C(O)[CH]1Cc2ccccc2CN1
Report only the number, with the unit µM understood.

Solved cases below.
molecule: CNC(Cc1ccc(O)cc1)C(=O)N1Cc2ccccc2CC1C(=O)O (stereo not drawn) (H-[NMeY]-[Tic]-OH; configuration not given here)
Ki [µM]: 12.4
//
molecule: Cc1cc(O)cc(C)c1C[C@H](C(=O)N1Cc2ccccc2CC1C(=O)O)N(C)C (stereo partly drawn)
Ki [µM]: 13.1
//
molecule: Cc1cc(O)cc(C)c1C[C@@H](C(=O)N1Cc2ccccc2CC1C(=O)O)N(C)C (stereo partly drawn)
Ki [µM]: 2.44
//
molecule: CN[C@H](Cc1c(C)cc(O)cc1C)C(=O)N1Cc2ccccc2CC1C(=O)O (stereo partly drawn)
Ki [µM]: 2
//
molecule: Cc1cc(O)cc(C)c1C[C@@H](N)C(=O)N1Cc2ccccc2C[C@H]1C(=O)N[C@@H](C)C(=O)O
Ki [µM]: 2.56

Request: Give the measured Ki of Cc1cc(O)cc(C)c1CC(N)C(=O)N1Cc2ccccc2C[C@H]1C(=O)O (single isomer, unassigned) .
Result: 11

Request: One more molecule: Cc1cc(O)cc(C)c1C[C@@H](C(=O)N1Cc2ccccc2CC1C(N)=O)N(C)C (stereo partly drawn)
Result: 0.511

Request: One more molecule: Cc1cc(O)cc(C)c1C[C@H](C(=O)N1Cc2ccccc2C[C@H]1C(=O)N[C@@H](C)C(=O)O)N(C)C
Result: 19

---

- testedOn: Delta-type opioid receptor (Mus musculus) (UniProt P32300)
- Sequence (P32300 whole entry): as above
- runConditions: Vas deferens
measuredAttribute: pA2
# answer = number (no unit)

Solved cases below.
compound: Cc1cc(O)cc(C)c1C[C@H](N)C(=O)N1Cc2ccccc2C[C@H]1C(=O)NC(C)C(=O)O (some centres undefined)
value: 8.4

compound: Cc1cc(O)cc(C)c1C[C@@H](N)C(=O)N1Cc2ccccc2C[C@H]1C(=O)N[C@@H](C)C(=O)O
value: 6.9

compound: Oc1ccc2c3c1O[C@H]1c4[nH]c5ccccc5c4C[C@@]4(O)[C@@H](C2)N(CC2CC2)CC[C@]314
value: 9.2

Would you kindly look at the next entry?
Request: Give the measured pA2 of Cc1cc(O)cc(C)c1C[C@H](N)C(=O)N1Cc2ccccc2C[C@H]1C(=O)O .
Result: 8.2

---

Measured Ratio, listed per entry.
- Tested on: Delta-type opioid receptor
- testProtocol: GPI/MVD ratio is based on Ke (antilog of pA2 value of antagonistic activity of compound for delta opioid receptor) and IC50 values
- Format: functional
# answer = number (no unit)

compound: Cc1cc(O)cc(C)c1C[C@@H](C(=O)N1Cc2ccccc2CC1C(=O)O)N(C)C (stereo not given in full)
testedOn: Delta-type opioid receptor
value: 5640

Would you kindly look at the next entry?
Request: Give the measured Ratio of Cc1cc(O)cc(C)c1C[C@@H](C(=O)N1Cc2ccccc2CC1C(N)=O)N(C)C (stereo not given in full) .
Result: 4500

---

Measured pKi, listed per entry.
- testedOn: Delta-type opioid receptor (Rattus norvegicus, UniProt P33533)
- Sequence (P33533 whole entry): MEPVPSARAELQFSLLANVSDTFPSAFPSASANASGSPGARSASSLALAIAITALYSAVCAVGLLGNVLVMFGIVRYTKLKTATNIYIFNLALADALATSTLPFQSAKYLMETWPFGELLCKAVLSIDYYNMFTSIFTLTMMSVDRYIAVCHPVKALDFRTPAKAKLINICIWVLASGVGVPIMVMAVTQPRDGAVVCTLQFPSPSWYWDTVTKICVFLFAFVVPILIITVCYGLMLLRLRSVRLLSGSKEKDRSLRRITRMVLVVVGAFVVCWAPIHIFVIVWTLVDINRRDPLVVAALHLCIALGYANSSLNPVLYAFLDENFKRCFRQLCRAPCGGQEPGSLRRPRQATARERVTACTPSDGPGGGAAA
- testProtocol: Binding affinity for Opioid receptor delta 1 by displacement of [3H]- DPDPE
Where a SMILES comes first, the peptide text is derived from it. [ ]: non-standard residue; d: D form. NMeY = CN[CH](Cc1ccc(O)cc1)C(=O)O; Tic = O=C(O)[CH]1Cc2ccccc2CN1
In simple prose, pKi is minus the logarithm base ten of a concentration in moles per litre.

Solved cases below.
compound: CN[C@H](Cc1c(C)cc(O)cc1C)C(=O)N1Cc2ccccc2CC1C(=O)O (some centres not stated)
pKi: 8.50

compound: CN[C@H](Cc1c(C)cc(O)cc1C)C(=O)N1Cc2ccccc2C[C@H]1C(=O)N[C@@H](C)C(=O)O
pKi: 6.97

compound: CN[C@H](Cc1c(C)cc(O)cc1C)C(=O)N1Cc2ccccc2CC1C(N)=O (some centres not stated)
pKi: 7.95

Request: # value lookup — system Delta-type opioid receptor (Rattus norvegicus, UniProt P33533), readout pKi, item CNC(Cc1ccc(O)cc1)C(=O)N1Cc2ccccc2CC1C(=O)O (configuration not stated) (H-[NMeY]-[Tic]-OH; configuration not given here)
Result: 7.13

Request: One more compound: CN(C)[C@@H](Cc1ccc(O)cc1)C(=O)N1Cc2ccccc2CC1C(=O)O (some centres not stated)
Result: 7.36

Request: One more compound: CN[C@@H](Cc1c(C)cc(O)cc1C)C(=O)N1Cc2ccccc2CC1C(N)=O (some centres not stated)
Result: 9.42

Request: One more compound: Cc1cc(O)cc(C)c1C[C@H](C(=O)N1Cc2ccccc2C[C@H]1C(=O)N[C@@H](C)C(=O)O)N(C)C
Result: 6.97

Request: One more compound: Cc1cc(O)cc(C)c1C[C@H](C(=O)N1Cc2ccccc2CC1C(=O)O)N(C)C (some centres not stated)
Result: 8.24
